Measured inhibition at 1 µM, listed per entry.
Target: SRC (Homo sapiens, UniProt P12931)
Construct: purchased Caliper Life Sciences
Sequence (P12931 whole entry, species assumed): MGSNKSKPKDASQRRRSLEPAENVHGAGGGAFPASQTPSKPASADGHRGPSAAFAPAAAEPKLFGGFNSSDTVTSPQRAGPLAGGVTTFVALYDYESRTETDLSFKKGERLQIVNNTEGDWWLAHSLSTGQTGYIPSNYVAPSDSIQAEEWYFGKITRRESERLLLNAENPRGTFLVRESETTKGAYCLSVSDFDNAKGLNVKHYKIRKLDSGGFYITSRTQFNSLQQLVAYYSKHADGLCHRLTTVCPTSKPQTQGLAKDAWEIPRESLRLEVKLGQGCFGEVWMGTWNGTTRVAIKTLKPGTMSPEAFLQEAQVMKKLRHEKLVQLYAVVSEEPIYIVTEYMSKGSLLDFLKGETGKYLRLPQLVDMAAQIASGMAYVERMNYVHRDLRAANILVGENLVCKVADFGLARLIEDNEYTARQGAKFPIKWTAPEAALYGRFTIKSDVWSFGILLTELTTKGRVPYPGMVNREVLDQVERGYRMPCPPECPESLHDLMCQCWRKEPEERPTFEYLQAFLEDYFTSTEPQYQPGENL
Assay: Desktop Profiler kinase panel, SRC
Assay type: biochemical
Details: 1 micromolar concentration of the compound

Would you please look over these solved cases?
[[record]]
chem_smiles = "COc1ccc(Nc2ccnc3[nH]c(=O)c4ccccc4c23)cc1"
endpoint_result = "70 to 90%"

[[record]]
chem_smiles = "O=c1[nH]c2nccc(NCc3ccccc3)c2c2ccccc12"
endpoint_result = "50 to 70%"

[[record]]
chem_smiles = "COc1ccccc1Nc1ccnc2[nH]c(=O)c3ccccc3c12"
endpoint_result = "70 to 90%"


input: Need inhibition at 1 µM, item O=c1[nH]c2nccc(Nc3ccccc3)c2c2ccccc12
output: > 90%
